Cited source for all entries: the nanobody polyreactivity screen of Harvey et al. (2022)

Protocol Notes: yeast display, Sf9 membrane polyspecificity reagent, FACS + sequencing; frameworks hold sequencing errors
Outcome Measure: polyreactivity (PSR sort gate)

// solved cases for polyreactivity (PSR sort gate) follow
Monomer Sequence	Outcome Measure	Test Result
QVQLVESGGGLVQAGGSLRLSCAASGFTFTIYAMGWYRQAPGKERELVATISGRAGRTYYADSVKGRFTISRDNAKNTVYLQMNSLKPEDTAVYYCNAGQWRYPGLYYYWGQGTQVTVSS	polyreactivity (PSR sort gate)	high polyreactivity
QVQLVESGGGLVQAGGSLRLSCAASGSIFNLYAMGWYRQAPGKERELVAAIRWSGGSTYYADSVKGRFTISRDNAKNTVYLKMKSMKPEDTAVYYCNAEWKSYRVPKFEYWGQGTQVTVSS	polyreactivity (PSR sort gate)	low polyreactivity
QVQLVESGGGLVQAGGSLRLSCAASGRTFVSNAMGWYRQAPGKERELVAGINWTDDSTYYADSVKGRFTISRDNAKNTVYLQMNSLKPEDTAVYYCAADSWEFAWPRFDYWGQGTQVTVSS	polyreactivity (PSR sort gate)	low polyreactivity
QVQLVESGGGLVQAGGSLRLSCAASGSIFDWYAMGCYRQAPGKEGELVAAISSGDSTYYADSVKGRFTISRDNAKNTVYLQMNSLKPEDTAVYYCAAVTKLSGIRYNYWGQGTQVTVSS	polyreactivity (PSR sort gate)	low polyreactivity
QVQLVESGGGLVQAGGSLRLSCAASGSIFQGYPMGWYRQAPGKERELVATIRWSSGSRTNYADSVKGRFTISRDNAKNTVYLQMNSLKPEDTAVYYCAAGSRRYKYDYWGQGTQVTVSS	polyreactivity (PSR sort gate)	high polyreactivity

// below: polyreactivity (PSR sort gate) requested for another sequence
So what's the measured polyreactivity (PSR sort gate) for this one? QVQLVESGGGLVQAGGSLRLSCAASGFILYGNTMGWYRQAPGKERELVAAISWSGGNTRYADSVKARFTISRDNAKNTVYLQMNSLQPEDTAVYYCAAYSNYVWSIRRDYWGQGTQVTVSS
low polyreactivity

* * *

Protocol Notes: yeast display, Sf9 membrane polyspecificity reagent, FACS + sequencing; frameworks hold sequencing errors
Outcome Measure: polyreactivity (PSR sort gate)

Please review the entries below; each comes with its answer.
Monomer Sequence	Test Result
QVQLVESGGGLVQAGGSLRLSCAASGIFVSYAMGWYRQAPGKDRAVVAAISSSGGSTYYADSVKGRFTISRDNAKNTVYLQMNSLKPEDTAVYYGAARLVKSQTTVQGYYWGQGTQVTVSS	high polyreactivity
QVQLVESGGGLVQAGGSLRLSCAASGSIIVWNAMGWYRQAPGKERELVASITSGASTYYADSVKGRFTISRDNAKNTVYLQMNSLKPEDTAVYFCAAYYGYTDVWYLYSGYNYWGQGTQVTVSS	low polyreactivity
QVQLEESGGGLVQAGGSLRLSCAASGSIFGYNAMGWYRQAPGKERELVAAINVDGGRTYYADSVKGRFTISRDNAKNTVYLQMNSLTPEDTAVFYCAAAYRLQVGRREYWGQGTQVTVSS	high polyreactivity
QVQLVESGGGLVQAGGSLRLSCAASGSTFGYYTMGWYRQEPVKETELVAAISYSGGRTFYADSVKGRFTISRDNAKNSVYLQMKSLKTEDTEVYYCNKRYIPSYLSHLDYWGQGTQVTVSS	high polyreactivity
QVQLVESGGGLVQAGGSLGLSWAASGSIIRYNALGWYRQAPGKERELVAAITKGAGSTYYADSEKGRFTISRDNAKNTVYLHMNSLKPEDTEVYYCNKARGSGHTYYSWGQGTQVTVSS	high polyreactivity

I have this sequence here, QVQLVESGGGLVQAGGSLRLSCAASGRIFIRAMGCYTQAPGKERELVAGITNGGITYYADSVKGRFTISRDNAKTTVYLQMNSLKPEDTAVYSCNARSRSVLYKYDYWGQGTQETVSS , and I need its recorded polyreactivity (PSR sort gate).
low polyreactivity

I have this sequence here, QVQLVESGGGLVQAGGSLRLSCAASGRIFHRNAMGWYRQAPGKERELVATIRGNGGSTYYADSVKGRFTISRDNAKNTVYLQMNSLKPEDTAVYYCALDAQGYGGWWTYSRFYSWGQGTQVTVSS , and I need its recorded polyreactivity (PSR sort gate).
high polyreactivity

Given the sequence QVQLVESGGGLVQAGGSLRLSCAASGSIFFQNGMGWYRQAPGKERELVAAISSSGDSTYYADSVKGRFTISRDYAKNTVYLQMNSLKPEDTAVYYCAAEPEYVSGPYDYWGQGTQVTVSS , what is its reported polyreactivity (PSR sort gate)?
low polyreactivity

I would be grateful if you could share the reported polyreactivity (PSR sort gate) for QVQLVESGGGLFQAGGSLRVSCAASGRIFFPYAMGWYRQAPGKERELVASIRGGGSTSYADSVKGRFTFSRDNAKNTVYLQMNSLKPEDTAVYYCAATPQAYWVLWSTYYTYYYWGQGTQVTVSS .
high polyreactivity

Data request, read-out polyreactivity (PSR sort gate), for QVQLVESGGGLVQAGGSLRLSCAASGSTFGDYAMGWYRQAPGKERELVAAISFSDGSTYYADSVKGRFTISRDNAKNTVYLQMNSLKPEDTAVYYCAKVDYWVYRWYTYDYWGQGTQVTVSS
low polyreactivity

// polyreactivity (PSR sort gate) lookup, key: QVQLVESGGGIVQAGGSLRLSCAASGSTLNSYVMGWYRQAPGKERELVATIRSGSSTNYADSVKGRFTISRDNAKYPDYLLMNSLKPEDTAVYSCAADAYSLCYDSWGQGTQVTVSS
low polyreactivity
